# applied_conditions: rat; liver microsomes; pH 7.4; 15.0 min; 1.0 µM
measured_quantity: half-life (min)
Give a bare numeral; the unit min is implied.

Worked cases, half-life given:
> print(dat)
                                    compound  measured.quantity  units.of.measure  quantitative.readout
 1  COc1ccccc1N1CCN(CCN(C(=O)c2ccc(F)cc2)c2ccccn2)CC1          half-life               min                  2.02
 2  Cc1ccc(NC(=O)N(Cc2cn(C)c3ccccc23)C2CCCCC2)cc1C          half-life               min                  1.95
 3  Cc1ccc2oc(NC3=NC(c4[nH]ncc4Cl)C4=C(CCCC4=O)N3)nc2c1 (stereo unspecified)          half-life               min                   1.7
 4  c1ccc(-c2cc(Nc3nc(-c4ccncc4)nc4ccccc34)n[nH]2)cc1          half-life               min                    11
 5  O=C(Nc1ccc(C(=O)Nc2nccs2)cc1)c1ccc2ccccc2c1          half-life               min                    23
 6          CCOc1ccc(CCNC(=O)c2ccccc2)cc1OCC          half-life               min                   1.5
 7  Cc1ccc(S(=O)(=O)Nc2cc(C)ccc2C(=O)Nc2nc(-c3ccccc3)cs2)cc1          half-life               min                   2.5
 8  CSc1cccc(NC(=O)CC[C@H]2O[C@@H]3O[C@]4(C)CC[C@H]5[C@H](C)CC[C@@H]([C@@H]2C)[C@@]35OO4)c1          half-life               min                   2.3
 9  CCCCN(CC)CCNC(=O)c1cc2c(-c3ccc(Cl)cc3)nn(C)c2s1          half-life               min                  3.76
10  O=C(NCC1Cn2cccc2CN1Cc1cccnc1)Nc1ccccc1 (stereo unspecified)          half-life               min                  1.41

Pending compound:
Recall and state the measured half-life for CCc1ccccc1Nc1ncnc2c1cnn2-c1ccc(Cl)cc1 .
7.13

* * *

# applied_conditions: rat; liver microsomes; pH 7.4; 15.0 min; 1.0 µM
Entries and their measured log10 half-life follow.
Log10 applied to half-life; unit prior to transform: min.

Worked cases, log10 half-life given:
molecule	log10 half-life
COc1cc(Nc2nc(-c3ccncc3)nc3ccccc23)ccc1Cl	1.08
COc1ccc(C2Nc3ccccc3C(=O)N2Cc2ccco2)cc1COc1c(C)cc(NC(C)=O)cc1C (stereo not given)	0.20
Cc1noc(C)c1-c1ccc(Nc2nc(-c3ccncc3)nc3ccccc23)cc1F	1.00

Recall and state the measured log10 half-life for COCC(C)Nc1ncnc2c1cnn2-c1ccc(C)c(C)c1 (stereo not given) .
1.37

Recall and state the measured log10 half-life for Cc1cc(C)nc(N2CCCC(C(=O)NCCc3ccc(F)cc3)C2)n1 (stereo not given) .
0.20

Recall and state the measured log10 half-life for Clc1ccc(-c2nc(-c3ccc(Br)o3)no2)c(Cl)c1 .
1.11

Recall and state the measured log10 half-life for Cc1ccc(S(=O)(=O)Nc2cnccc2C(=O)Nc2nc(-c3cccc(C)c3)cs2)cc1 .
0.76

Recall and state the measured log10 half-life for COc1cc(NC(=O)c2cc(-c3ccccc3O)no2)cc(OC)c1OC .
1.10
